ASSAY_EXPLANATION: Mean residence time by intravenous administration
Type: ADME, organism-based
EXPERIMENTAL_CONTEXT: in vivo
METRIC: MRT (min)
Entry rule: numbers only, all in min.

Consider the compound shown here: `CN1CCN(c2nc(-c3ccc(C(=O)NC4(C(=O)N[C@@H]5C(=O)N[C@@H]5Oc5ccccc5)CCCCC4)cc3)cs2)CC1` What is its recorded MRT? 17

###

// Ki'' collected for Procathepsin L (Homo sapiens)
# unit: µM | format: bare number

// Ki'' lookup, key: `CC(=O)O[C@@H]1NC(=O)[C@H]1NC(=O)C1(NC(=O)c2ccc(N(C)C)cc2)CCCCC1` 2.1
